Data provenance: patent US10076533B2

Test system: Human peripheral blood monocyte (PBMC)

compound	test system	CC50 / nM
CCCCCCCCCCCCCCCCCCOC[C@H](COP(=O)(CO[C@H](CO)Cn1cnc2c(N)ncnc21)OCc1ccccc1)OCc1ccccc1 (stereo partly shown)	Human peripheral blood monocyte (PBMC)	550

====

Test system: MT-2 cells
Experiment: Cytotoxicity in MT-2 cells, flow cytometry cell counts and viability
Type: cell-based, human
Details: 72 hrs; read-out: CC50, 50% Cytotoxic concentration MT2 cells T cell leukemia
recorded endpoint: CC50

molecule	result
CCCCCCCCCCCCCCCCCCOCCOP(=O)(COCCn1cnc2c(=O)[nH]c(N)nc21)OCc1ccccc1 (single isomer, unassigned) [Compound 1a]	< 10 nM
CCCCCCCCCCCCCCCCCCOCCOP(=O)(COCCn1cnc2c(=O)[nH]c(N)nc21)OCc1ccccc1 (single isomer, unassigned) [Compound 1b]	< 10 nM
